ASSAY TARGET: T1, human LILRB1 expressed on cells (human, UniProt Q8NHL6 24-650)
T1 construct: In 293T cells it was expressed from pCMV3-LILRB1-GFP; also called CHO-LILRB1; Jurkat-LILRB1
T1 sequence (Q8NHL6 other isoform, or with tags, fused parts or gaps limits assumed): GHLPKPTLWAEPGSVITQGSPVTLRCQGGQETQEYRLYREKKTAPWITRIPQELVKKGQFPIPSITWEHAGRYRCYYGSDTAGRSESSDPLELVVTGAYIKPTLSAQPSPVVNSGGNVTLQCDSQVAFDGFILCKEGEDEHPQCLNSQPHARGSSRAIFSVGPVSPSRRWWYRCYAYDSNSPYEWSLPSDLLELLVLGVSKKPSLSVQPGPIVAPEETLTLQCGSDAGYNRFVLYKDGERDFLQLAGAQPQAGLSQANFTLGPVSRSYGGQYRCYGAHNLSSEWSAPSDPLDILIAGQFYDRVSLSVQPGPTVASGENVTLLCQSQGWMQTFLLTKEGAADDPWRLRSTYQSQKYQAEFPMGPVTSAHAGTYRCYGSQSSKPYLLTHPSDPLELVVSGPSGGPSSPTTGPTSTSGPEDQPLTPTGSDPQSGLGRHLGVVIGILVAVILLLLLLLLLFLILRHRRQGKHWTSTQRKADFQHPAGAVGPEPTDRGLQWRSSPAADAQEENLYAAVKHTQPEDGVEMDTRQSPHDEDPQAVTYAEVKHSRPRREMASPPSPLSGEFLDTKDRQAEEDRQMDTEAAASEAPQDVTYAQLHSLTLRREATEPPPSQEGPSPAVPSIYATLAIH
PROCEDURE TEXT: flow cytometry, Jurkat-LILRB1 cells; blocked ligand: APC HLA-G trimer tetramer
QUANTITY MEASURED: IC50 (µg/mL)
All answers are understood in µg/mL, so give the number only.

Before answering, review these 2 worked examples.
INSERT INTO results (binder, quantity_measured, measured_result) VALUES
  ('D2M002-002 (antibody, V domains shown, Hit from immunised mice; also called clone #2; anti-LILRB1/2 clone #2) VH: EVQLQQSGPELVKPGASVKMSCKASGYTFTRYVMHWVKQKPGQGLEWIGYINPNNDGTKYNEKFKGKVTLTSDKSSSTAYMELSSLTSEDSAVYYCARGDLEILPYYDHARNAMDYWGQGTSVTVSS VL: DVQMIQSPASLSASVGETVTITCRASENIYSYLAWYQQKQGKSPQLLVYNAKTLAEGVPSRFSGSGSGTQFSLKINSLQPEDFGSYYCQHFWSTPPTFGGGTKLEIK', 'IC50', 0.191),
  ('D2M002-101 (antibody, V domains shown, humanized and optimized variant tested beside D2M002-002; also called P211_A12) VH: QVQLVQSGAEVKKPGASVKVSCKASGYTFTRYVMHWVRQAPGQRLEWMGWINPNNEETKYSQKFKGRVTLTRDTSASTAYMELSSLRSEDTAVYYCARADLEILPYYDHARNAMDYWGQGTLVTVSS VL: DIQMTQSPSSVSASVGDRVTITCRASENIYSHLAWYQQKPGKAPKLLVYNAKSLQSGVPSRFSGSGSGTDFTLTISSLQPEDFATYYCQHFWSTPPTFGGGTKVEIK', 'IC50', 0.138);

// below: IC50 requested for another binder
Supply measured IC50 of D2M002-122 (antibody, V domains shown) VH: QVQLVQSGAEVKKPGASVKVSCKASGYTFTSYWIEWVRQAPGQGLEWIGEILPGEGSTNYNAKFKGRVTFTTDTSTSTAYMELRSLRSDDTAVYYCARSGAGGYDSGAFAYWGQGTLVTVSS VL: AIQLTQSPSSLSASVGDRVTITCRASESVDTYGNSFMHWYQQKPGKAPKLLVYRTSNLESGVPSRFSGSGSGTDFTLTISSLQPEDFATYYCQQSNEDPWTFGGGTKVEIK in your reply.
0.501

Provenance of the data: patent US20250171534A1
